Biological target: hemoglobin of adult (HbA) (Homo sapiens, UniProt P68871+P69905)
Construct: HbA tetramer purified from human whole blood; with hemoglobin subunit beta (HBB)
Sequence (P69905 2-142): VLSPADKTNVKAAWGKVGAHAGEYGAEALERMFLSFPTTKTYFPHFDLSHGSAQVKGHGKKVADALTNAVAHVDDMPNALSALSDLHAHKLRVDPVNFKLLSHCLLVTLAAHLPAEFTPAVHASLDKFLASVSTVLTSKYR
Sequence (P68871 2-147): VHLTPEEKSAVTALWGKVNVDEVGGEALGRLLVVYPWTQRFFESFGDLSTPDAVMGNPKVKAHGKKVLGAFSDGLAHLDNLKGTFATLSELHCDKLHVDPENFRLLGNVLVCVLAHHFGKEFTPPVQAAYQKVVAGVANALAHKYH
Experiment: SPR (OpenSPR, HbA immobilized on COOH chip, one-to-one model); supported by thermal shift (Tm1) and P50 shift
Property name: Kd

Tested on hemoglobin of adult (HbA) (Homo sapiens, UniProt P68871+P69905): Oc1ccc(/C=C/c2cc(O)cc(O)c2)cc1 [RSV, 3,4′,5-trihydroxy-trans-stilbene] . Observed Kd: 48.6 µM

Data origin, for the record: paper PMC10004267
